The following compounds are shown together with reported Ki values.
# experimentalTarget: Adenosine receptor A1 (Homo sapiens, UniProt P30542)
# Sequence (P30542 whole entry): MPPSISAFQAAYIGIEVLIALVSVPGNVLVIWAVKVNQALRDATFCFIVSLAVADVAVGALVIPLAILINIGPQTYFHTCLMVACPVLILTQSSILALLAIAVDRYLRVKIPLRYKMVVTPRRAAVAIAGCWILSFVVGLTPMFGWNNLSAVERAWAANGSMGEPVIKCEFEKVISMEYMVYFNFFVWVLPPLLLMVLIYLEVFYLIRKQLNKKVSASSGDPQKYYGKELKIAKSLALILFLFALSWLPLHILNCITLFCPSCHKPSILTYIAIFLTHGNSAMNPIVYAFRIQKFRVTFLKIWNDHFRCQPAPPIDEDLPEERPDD
# testDescription: Displacement of [3H]CCPA from human recombinant adenosine A1 receptor expressed in CHO cells

{"smilesRepr": "CNC(=O)OC[C@H]1O[C@@H](n2cnc3c(NC4CCCC4)nc(Cl)nc32)[C@](C)(O)[C@@H]1O", "unitString": "nM", "Ki": 1120}
{"smilesRepr": "C[C@@]1(O)[C@H](O)[C@@H](CO)O[C@H]1n1cnc2c(N[C@@H]3CCOC3)nc(Cl)nc21", "unitString": "nM", "Ki": 15.5}
{"smilesRepr": "CNC(=O)OC[C@H]1O[C@@H](n2cnc3c(N[C@@H]4CCOC4)nc(Cl)nc32)[C@](C)(O)[C@@H]1O", "unitString": "nM", "Ki": 4770}
{"smilesRepr": "OC[C@H]1O[C@@H](n2cnc3c(N[C@@H]4CCOC4)nc(Cl)nc32)[C@H](O)[C@@H]1O", "unitString": "nM", "Ki": 1.87}
{"smilesRepr": "C[C@@]1(O)[C@H](O)[C@@H](CO)O[C@H]1n1cnc2c(NC3CCCC3)ncnc21", "unitString": "nM", "Ki": 4.52}
{"smilesRepr": "C[C@@]1(O)[C@H](O)[C@@H](CO)O[C@H]1n1cnc2c(N[C@@H]3CCOC3)ncnc21", "unitString": "nM", "Ki": 21}
{"smilesRepr": "CNC(=S)OC[C@H]1O[C@@H](n2cnc3c(N[C@@H]4CCOC4)nc(Cl)nc32)[C@](C)(O)[C@@H]1O", "unitString": "nM", "Ki": 837}
{"smilesRepr": "CNC(=S)OC[C@H]1O[C@@H](n2cnc3c(NC4CCCC4)nc(Cl)nc32)[C@](C)(O)[C@@H]1O", "unitString": "nM", "Ki": 356}
{"smilesRepr": "C[C@@]1(O)[C@H](O)[C@@H](CO)O[C@H]1n1cnc2c(NC3CCCC3)nc(Cl)nc21", "unitString": "nM", "Ki": 3.37}
